Ref: patent US20210363269A1

Below, each entry is listed alongside its reported Kd.
Target System: T1, human SIRP-α v1 (human, UniProt P78324 31-149)
T1 construct: also called Human v1; Human V1
T1 sequence (P78324 31-149 limits assumed): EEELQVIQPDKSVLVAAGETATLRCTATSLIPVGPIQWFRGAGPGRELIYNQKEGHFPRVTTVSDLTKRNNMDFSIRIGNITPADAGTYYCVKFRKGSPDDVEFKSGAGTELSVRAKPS
Assay Details: SPR, antibody on GLC chip
All answers are understood in nM, so give the number only.

Reference set, count: 5
Binder	Kd [nM]
antibody 135 (antibody, V domains shown, also called AB135; S135) VH: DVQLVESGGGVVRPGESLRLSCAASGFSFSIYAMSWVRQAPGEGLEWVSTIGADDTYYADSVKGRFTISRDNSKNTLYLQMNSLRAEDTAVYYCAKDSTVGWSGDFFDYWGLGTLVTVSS VL: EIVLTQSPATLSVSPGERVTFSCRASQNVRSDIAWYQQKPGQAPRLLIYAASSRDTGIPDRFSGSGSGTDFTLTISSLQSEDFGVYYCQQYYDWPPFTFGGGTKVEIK	0.151
antibody 136 variant, light chain wt / heavy chain Mut (antibody, V domains shown) VH: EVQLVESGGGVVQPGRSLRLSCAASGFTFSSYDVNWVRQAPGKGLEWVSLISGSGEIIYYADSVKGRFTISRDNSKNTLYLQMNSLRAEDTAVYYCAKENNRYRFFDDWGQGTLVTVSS VL: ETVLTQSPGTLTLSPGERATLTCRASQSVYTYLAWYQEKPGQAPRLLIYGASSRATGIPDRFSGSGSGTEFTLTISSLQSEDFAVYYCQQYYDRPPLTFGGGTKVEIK	0.558
antibody 119 variant, light chain Mut / heavy chain Mut (antibody, V domains shown) VH: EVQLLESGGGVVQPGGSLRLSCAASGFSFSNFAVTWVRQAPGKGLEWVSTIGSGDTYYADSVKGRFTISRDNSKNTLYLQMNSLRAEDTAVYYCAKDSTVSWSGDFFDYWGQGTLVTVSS VL: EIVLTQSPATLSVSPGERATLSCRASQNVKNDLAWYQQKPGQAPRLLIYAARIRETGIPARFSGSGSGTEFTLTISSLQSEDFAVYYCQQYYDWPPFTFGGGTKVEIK	0.317
antibody 119 variant, light chain Mut / heavy chain wt (antibody, V domains shown) VH: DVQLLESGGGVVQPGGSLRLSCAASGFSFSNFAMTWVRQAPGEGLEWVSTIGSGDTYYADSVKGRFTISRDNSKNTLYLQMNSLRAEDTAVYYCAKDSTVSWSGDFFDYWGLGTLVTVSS VL: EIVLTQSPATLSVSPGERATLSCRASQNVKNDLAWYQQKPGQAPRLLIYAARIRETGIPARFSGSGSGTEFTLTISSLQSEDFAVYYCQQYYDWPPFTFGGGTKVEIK	0.214
antibody 136 variant, light chain Mut_I2T / heavy chain Mut_V34M (antibody, V domains shown) VH: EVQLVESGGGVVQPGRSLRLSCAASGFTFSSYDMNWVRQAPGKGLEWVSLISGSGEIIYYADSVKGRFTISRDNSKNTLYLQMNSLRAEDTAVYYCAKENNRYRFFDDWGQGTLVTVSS VL: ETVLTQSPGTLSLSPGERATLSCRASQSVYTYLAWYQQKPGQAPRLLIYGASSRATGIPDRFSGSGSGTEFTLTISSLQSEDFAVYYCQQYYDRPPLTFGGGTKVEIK	0.551

Give Kd for the following binder: antibody 135 variant, light chain wt / heavy chain Mut_V34M (antibody, V domains shown) VH: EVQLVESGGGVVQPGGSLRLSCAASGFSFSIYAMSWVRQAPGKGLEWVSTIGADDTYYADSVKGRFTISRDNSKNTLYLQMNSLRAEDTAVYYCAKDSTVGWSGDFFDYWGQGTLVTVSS VL: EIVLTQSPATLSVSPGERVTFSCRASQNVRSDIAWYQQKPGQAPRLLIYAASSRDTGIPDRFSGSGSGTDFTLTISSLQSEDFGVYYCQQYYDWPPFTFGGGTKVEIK 0.15

Indicate the recorded Kd value for this binder: antibody 136 variant, light chain Mut_Q38E / heavy chain Mut (antibody, V domains shown) VH: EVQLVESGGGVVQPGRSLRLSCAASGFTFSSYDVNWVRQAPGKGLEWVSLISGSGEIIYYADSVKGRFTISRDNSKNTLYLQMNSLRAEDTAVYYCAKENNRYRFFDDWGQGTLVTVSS VL: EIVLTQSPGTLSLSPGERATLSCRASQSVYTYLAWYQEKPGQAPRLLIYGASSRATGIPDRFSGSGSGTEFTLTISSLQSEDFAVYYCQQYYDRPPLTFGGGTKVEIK 6.18
